Origin of measurements: PubChem BioAssay

test: small molecules captured by biotinylated probe aFGF2 – biochemical, small-molecule microarray, fluorescence 635/667, stem cell growth factor project, primary screen (AID 1067); details: higher = more signal;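 also: measures binding of biotinylated aFGF2 protein to printed compounds on slides; z-score merges feature fluorescence and signal-to-noise across triplicate slides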
Measurement name: composite z-score

{"Compound": "CCCC1(C(=O)OC)C=C2C(=C(c3ccccc3)C(=O)C2C)CN1 (stereo not given)", "Value reported": -0.0869}
{"Compound": "COCCOC(=O)N1C(=O)[C@@]2(c3cc(C#CC4=CCCCC4)ccc31)[C@H](c1ccc(OCCO)cc1)N1[C@H](c3ccccc3)[C@H](c3ccccc3)OC(=O)[C@H]1[C@@H]2C(=O)N1CCc2cc(OC)c(OC)cc2C1", "Value reported": -0.0242}
{"Compound": "CN1C(=O)C2C=CC(C(O)c3ccc(F)cc3)N(N(c3ccccc3)c3ccccc3)C2C1=O (stereo not given)", "Value reported": -0.0446}
{"Compound": "[N-]=[N+]=Nc1ccccc1[C@H]1OC(c2ccc(OCCCO)cc2)=N[C@@]1(Cc1ccccc1)C(=O)N1CCOCC1", "Value reported": 0.184}
{"Compound": "O=C1N(CCS(=O)(=O)c2ccccc2)c2ccccc2[C@@H]2OC(c3ccc(OCCCO)cc3)=N[C@]12Cc1ccccc1", "Value reported": -0.165}
{"Compound": "CC(C)N1CC=CC23O[C@@H]4C=CCOC(=O)[C@@H]4[C@H]2C(=O)N(CCCCCO)[C@@H]3C1=O (stereo not given in full)", "Value reported": -0.153}
{"Compound": "C=C(/C(=C/C[C@H](OC(=O)c1ccncc1)c1ccc(OCCO)cc1)c1cc(C(=O)OC)ccc1OC)C(C)C", "Value reported": -0.134}
{"Compound": "CC(C)Cc1ccc(CN2CC[C@@H](N)C2)cc1", "Value reported": -0.219}
{"Compound": "CC(=O)Nc1cc(Br)ccc1C(=O)NCc1ccccc1", "Value reported": 0.0213}
{"Compound": "COC(=O)C(CC#Cc1ccc2c(c1)[C@]1(C(=O)N2)[C@H](c2ccc(O)cc2)N2[C@H](c3ccccc3)[C@H](c3ccccc3)OC(=O)[C@H]2[C@@H]1C(=O)N1CCN(c2ncccn2)CC1)C(=O)OC", "Value reported": -0.0035}
{"Compound": "COC(=O)[C@]1(Cc2ccccc2)N=C(c2ccc(OCCCO)cc2)O[C@@H]1c1ccccc1N=[N+]=[N-]", "Value reported": -0.0268}
{"Compound": "CCOC(=O)C1=CC[C@@H](c2ccc(C(F)(F)F)cc2)N(S(=O)(=O)c2ccc(C)cc2)[C@H]1c1ccccc1", "Value reported": 0.0917}
{"Compound": "C=C(/C(=C/C[C@H](OC(C)=O)c1ccc(OCCO)cc1)c1cc(C(=O)OC)ccc1OC)C(C)C", "Value reported": -0.145}
{"Compound": "COc1ccc([Si](C)(C)[C@@H]2[C@@H](CC(=O)N3CCC[C@H]3CO)O[C@]3(C(=O)N(Cc4cccc(I)c4)c4ccccc43)[C@H]2C)cc1", "Value reported": -0.137}
{"Compound": "O=C1[C@H]2C=C(Br)[C@H](C[C@@H]2OCCCCCCO)[C@@]12CO2", "Value reported": -0.0443}
{"Compound": "CC(CO)N1C(=O)[C@@H]2C3C(=O)OCCC/C=C\\[C@H]3OC23C=CCN(CCN2CCOCC2)C(=O)[C@@H]13 (stereo not given in full)", "Value reported": -0.139}
{"Compound": "C=CCC(OC(C)=O)[C@@H]1[C@@H](N(Cc2ccc(-c3cccc(C(F)(F)F)c3)o2)C(=O)c2cccc3ccccc23)c2cc(OCCCO)ccc2N1C(=O)Cc1ccc2ccccc2c1 (stereo not given in full)", "Value reported": -0.152}
{"Compound": "COc1ccc(C(O)C2C=CC3C(=O)N(C)C(=O)C3N2NC(=O)OC(C)(C)C)c2ccccc12 (stereo not given)", "Value reported": -0.0107}
{"Compound": "CCOC(=O)C[C@H]1[C@H](OC(=O)c2ccc(-c3ccccc3)cc2)[C@@H](NC(=O)c2ccccc2)c2cc(OCCCO)ccc2N1C(=O)c1ccc2ccccc2n1", "Value reported": -0.105}
{"Compound": "COC(=O)C(CC#Cc1ccc2c(c1)[C@]1(C(=O)N2)[C@H](c2ccccc2OCCO)N2[C@H](c3ccccc3)[C@H](c3ccccc3)OC(=O)[C@H]2[C@@H]1C(N)=O)C(=O)OC", "Value reported": 0.255}
{"Compound": "COC(=O)[C@@]1(Cc2ccc(OC)cc2)[C@H]2c3cc(C(=O)N4CCCC4)n(CCCNc4ncc(C(F)(F)F)cc4Cl)c3C[C@H]2CN1C(=O)c1ccccc1", "Value reported": 0.578}
{"Compound": "CCOC(=O)C1=CCC(c2ccc(F)cc2)N(S(=O)(=O)c2ccc(C)cc2)C1 (stereo not given)", "Value reported": 0.0198}
{"Compound": "O=C1O[C@@H](c2ccccc2)[C@@H](c2ccccc2)N2[C@@H](c3ccc(OCCO)cc3)[C@]3(C(=O)Nc4ccc(C#CC5=CCCCC5)cc43)[C@@H](C(=O)N3CCCCCCC3)[C@H]12", "Value reported": 0.753}
{"Compound": "O=C(CS)NCCCCCNC(=O)[C@H]1C[C@H]2C(=O)NCC(=O)N2[C@H]1c1cccc(OCCO)c1", "Value reported": -0.0579}
{"Compound": "C=CC[C@]1(C(N)=O)N=C(c2ccc(OCCCO)cc2)O[C@H]1c1ccccc1", "Value reported": -0.0286}
{"Compound": "CN1C(=O)C2C=CC(C(O)c3ccccc3)N(N3CCCCC3)C2C1=O (stereo not given)", "Value reported": 0.054}
{"Compound": "O=C1NC(=O)C2C1C=CC(C(O)c1ccc(I)cc1)N2Nc1ccc(Cl)cc1Cl (stereo not given)", "Value reported": -0.0085}
{"Compound": "C[N+](C)(C)CCCCCCNC(=O)[C@H]1C[C@H]2C(=O)N[C@@H](Cc3ccccc3)C(=O)N2[C@H]1c1cccc(OCCO)c1", "Value reported": -0.0266}
{"Compound": "COC(=O)c1c(CC[C@@H](CO)NC(=O)NCCc2c[nH]c3ccccc23)oc(C(=O)Cc2ccccc2)c1C(=O)OC", "Value reported": 0.0858}
{"Compound": "COC(=O)[C@@]1(Cc2ccc(OC)cc2)[C@H]2c3cc(C(=O)N4CCCC4)n(CCSCCO)c3C[C@H]2CN1C(=O)c1ccccc1", "Value reported": 0.46}
